system: Staphylococcus aureus; experiment: Antibacterial activity against vancomycin-intermediate-resistant Staphylococcus aureus assessed as growth inhibition by broth microdilution method; assay type: functional
readout.kind: MIC (µM)
Give the quantity in µM, number only.

# get_value(readout='MIC', item= "CCCCCCCC[N+](C)(C)CCCNC(=O)[C@H]1NC(=O)[C@H]2NC(=O)[C@H](NC(=O)[C@@H]3NC(=O)[C@H](CC(N)=O)NC(=O)[C@H](NC(=O)[C@@H](CC(C)C)NC)[C@H](O)c4ccc(c(Cl)c4)Oc4cc3cc(c4O[C@@H]3O[C@H](CO)[C@@H](O)[C@H](O)[C@H]3O[C@H]3C[C@](C)(N)[C@H](O)[C@H](C)O3)Oc3ccc(cc3Cl)[C@H]2O)c2ccc(O)c(c2)-c2c(O)cc(O)cc21.O=C([O-])C(F)(F)F" ) 0.4

State the recorded MIC for this entry: "CC[N+](C)(C)CCCNC(=O)[C@H]1NC(=O)[C@H]2NC(=O)[C@H](NC(=O)[C@@H]3NC(=O)[C@H](CC(N)=O)NC(=O)[C@H](NC(=O)[C@@H](CC(C)C)NC)[C@H](O)c4ccc(c(Cl)c4)Oc4cc3cc(c4O[C@@H]3O[C@H](CO)[C@@H](O)[C@H](O)[C@H]3O[C@H]3C[C@](C)(N)[C@H](O)[C@H](C)O3)Oc3ccc(cc3Cl)[C@H]2O)c2ccc(O)c(c2)-c2c(O)cc(O)cc21" 1.3

Query: MIC; subject: "CCCCCCCCCCCCCCNCCCNC(=O)[C@H]1NC(=O)[C@H]2NC(=O)[C@H](NC(=O)[C@@H]3NC(=O)[C@H](CC(N)=O)NC(=O)[C@H](NC(=O)[C@@H](CC(C)C)NC)[C@H](O)c4ccc(c(Cl)c4)Oc4cc3cc(c4O[C@@H]3O[C@H](CO)[C@@H](O)[C@H](O)[C@H]3O[C@H]3C[C@](C)(N)[C@H](O)[C@H](C)O3)Oc3ccc(cc3Cl)[C@H]2O)c2ccc(O)c(c2)-c2c(O)cc(O)cc21" 1

Given the entry "CCCCCCCCCC[N+](C)(C)CCCNC(=O)[C@H]1NC(=O)[C@H]2NC(=O)[C@H](NC(=O)[C@@H]3NC(=O)[C@H](CC(N)=O)NC(=O)[C@H](NC(=O)[C@@H](CC(C)C)NC)[C@H](O)c4ccc(c(Cl)c4)Oc4cc3cc(c4O[C@@H]3O[C@H](CO)[C@@H](O)[C@H](O)[C@H]3O[C@H]3C[C@](C)(N)[C@H](O)[C@H](C)O3)Oc3ccc(cc3Cl)[C@H]2O)c2ccc(O)c(c2)-c2c(O)cc(O)cc21" , report its measured MIC. 0.3
